So I've got a bunch of compounds here, and I need their composite z-score values.
Target: Carbonic anhydrase 2 (Homo sapiens)
Assay: CAII small-molecule binders, profiling panel, biochemical, small-molecule microarray, Alexa647-labelled CAII (AID 1122)
Settings: CAII-A647 binding fluorescence, higher = more signal

So what composite z-score did Cc1ccc(C(C)CC(O)C2C=CC3C(=O)N(c4ccccc4)C(=O)C3N2Nc2ccc(C#N)cc2)o1 (configuration not stated) get with Carbonic anhydrase 2 (Homo sapiens)?
0.707

Ok, now CCOC(=O)C1=CCC(c2ccccc2)N(S(=O)(=O)c2ccc([N+](=O)[O-])cc2)C1 (configuration not stated)
0.0862

And the next one, CCCCC(=C=CC[C@H](O)c1ccc(OCCO)cc1)C[C@H](O)COCc1ccccc1 ?
0.7

Similarly, CCN(CC)c1ccc(N2CC=CC34O[C@@H]5/C=C\CCC(C)OC(=O)C5[C@H]3C(=O)N(C(C)CO)[C@@H]4C2=O)cc1 (some centres not stated) ?
0.42

Moving on to the next compound: COc1ccc([Si](C)(C)[C@@H]2[C@@H](CC(=O)N3Cc4ccccc4C[C@H]3CO)O[C@]3(C(=O)N(c4ccccc4)c4ccccc43)[C@H]2C)cc1
0.429

Now consider COC(=O)[C@@]1(Cc2ccc(OC)cc2)[C@H]2c3cc(C(=O)N4CCCC4)n(Cc4cc(C)n(C)n4)c3C[C@H]2CN1C(=O)c1ccccc1 and answer again.
0.962

Request: C=CCC(OC(C)=O)[C@@H]1[C@@H](N(Cc2cccc3ccccc23)C(=O)c2cccc3ccccc23)c2cc(OCCCO)ccc2N1C(=O)c1ccc2ccccc2c1 (some centres not stated)
0.206

----------
Assay: CREB reporter modulators without forskolin, primary screen, cell-based, PC12, CRE-LacZ reporter, unstimulated (AID 1145)
Settings: no forskolin, luminescence, 4.5 h, called active from +8 up or from −8 down
Active and inactive are the calls of the source.
Respond with a class label; see active, inactive

Write down the call the test reported for this compound. Item: [N-]=[N+]=Nc1ccccc1C[C@@]1(C(=O)O)N=C(c2ccc(OCCCO)cc2)O[C@@H]1c1ccccc1N=[N+]=[N-]
inactive

Proceed to C=C(/C(=C/C[C@H](OC(=O)c1ccncc1)c1cccc(OCCO)c1)c1cnc2ccccc2c1)C(C)C
active

Queued: CCC(CC)C(O)C1C=CC2C(=O)N(c3ccccc3)C(=O)C2N1Nc1ccc([N+](=O)[O-])cc1 (stereo not drawn)
inactive

And what about the compound CC(C)C[C@@H]1NC(=O)[C@@]23C(=O)N[C@@H](Cc4ccccc4)C2[C@H](C)[C@@]2(C)O[C@H]2C3/C=C/C/C=C\CNC(=O)[C@@H](C)NC1=O (stereo partly drawn) ?
inactive

Same question for C=C(/C(=C/C[C@@H](OC(C)=O)c1ccc(CO)o1)c1cc(C(=O)OC)ccc1OC)C(C)C please.
inactive

Would you mind doing O=C1[C@@]23C=C(Br)[C@H](C[C@@H]2COC3)[C@@]12CO2 as well?
inactive

Continue with COCC(=C=CC[C@@H](O)c1cccc(OCCO)c1)CCO
inactive

Param item: Cc1cccc([C@H]2C[C@H]3C(I)=C[C@@H]2C(=O)[C@]32CO2)c1
inactive

----------
Test system: Human papillomavirus type 1a protein E7 (residues 44-93)
Assay: HPV1a E7 fragment binders on microarrays, primary screen, biochemical, small-molecule microarray, residues 44-93, 635 nm fluorescence (AID 1108);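 also: E7 fragment applied at 1 µg/mL in TBST for 1 h at 4 C; score combines spot fluorescence with its signal to noise ratio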
Conditions: small-molecule microarray binding, fluorescence 635 nm; higher = more signal
Please respond with reported composite z-score for every item in the list.

Recorded composite z-score for Cc1ccc(S[C@]2(C(=O)NCc3ccccc3)CC(=O)N(Cc3cc(C(F)(F)F)cc(C(F)(F)F)c3)[C@@H]2c2ccc(CO)cc2I)cc1 , please?
-0.262

Could you do the same for CCOC(=O)C=Cc1cc(F)ccc1O , please?
0.261

Check COC(=O)C1=CC(CCCO)=CC(c2ccc(CN3CCCC3)cc2)N(Cc2cc3c(cc2Br)OCO3)C=C1C(=O)OC (centres undefined) too.
1.39

Next record, please: C=C(COC)/C(=C/C[C@H](OC(C)=O)c1cccc(OCCO)c1)c1cnc2ccccc2c1
1.4

And what about the compound O=C1O[C@H](c2ccccc2)[C@H](c2ccccc2)N2[C@H]1[C@@H](C(=O)O)[C@]1(C(=O)Nc3ccc(C#CC4(O)CCCCCC4)cc31)[C@H]2c1ccc(O)cc1 ?
0.628

Record: [N-]=[N+]=Nc1ccccc1C[C@]1(C(=O)NCc2ccccc2)COC(c2ccc(OCCCO)cc2)=N1
1.4

Consider next the compound COc1ccc(NC(=O)O[C@H]2[C@@H]3OC(=O)[C@H](Cc4cccc(Br)c4)C/C=C/C[C@@H](Cc4cccc(Br)c4)C(=O)O[C@H]3[C@@H](OC)O[C@@H]2CO)cc1 in the same way.
0.277

What about Cc1ccc(C(C)CC(O)C2C=CC3C(=O)N(c4ccccc4)C(=O)C3N2Nc2ccc(C#N)cc2)o1 (centres undefined) ?
1.42

Now the same for NC(=O)[C@@H]1[C@H]2C(=O)O[C@H](c3ccccc3)[C@H](c3ccccc3)N2[C@H](c2ccc(OCCO)cc2)[C@@]12C(=O)Nc1ccc(C#CCCO)cc12
-1.04

What about Cc1ccc(S[C@]2(C(=O)NC(C)C)CC(=O)N(C(C)C)[C@@H]2c2ccc(CO)cc2I)cc1 ?
0.973

For COCCOC(=O)N1C(=O)[C@@]2(c3cc(C#CC4(O)CCCCCC4)ccc31)[C@H](C(=O)N1CCN(c3ncccn3)CC1)[C@H]1C(=O)O[C@H](c3ccccc3)[C@H](c3ccccc3)N1[C@@H]2c1ccccc1OCCO then?
1.37

Same thing, different compound: COCC1C2CC[C@H]3C(OCc4ccc(OC)cc4)OC[C@]4(C)[C@H]3C2=C(CN4C(=O)OC(C)(C)C)[C@H](C)C1COC (some centres undefined)
1.4

Now the same for [N-]=[N+]=NCc1ccccc1[C@H]1OC(c2ccc(OCCCO)cc2)=N[C@@]1(Cc1ccccc1)C(=O)NCCN1CCOCC1
-0.442

Also, COc1ccc(C#Cc2ccc3c(c2)[C@]2(C(=O)N3)[C@H](C(=O)N3CCCCCCC3)[C@H]3C(=O)O[C@H](c4ccccc4)[C@H](c4ccccc4)N3[C@@H]2c2ccc(O)cc2)cc1 please.
0.871
